Recorded values, source patent US20180355061A1.

- system-tested: T1, human PD-1 (soluble analyte in SPR) (human, UniProt Q15116 25-170, limits assumed)
- T1 construct: also called CD279; PDCD1
- T1 sequence (Q15116 25-170 limits assumed): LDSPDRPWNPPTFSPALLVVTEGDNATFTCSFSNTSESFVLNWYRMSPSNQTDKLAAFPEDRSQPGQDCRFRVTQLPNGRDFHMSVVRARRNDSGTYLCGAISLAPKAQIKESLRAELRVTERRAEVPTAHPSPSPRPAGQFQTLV
- protocol-text: SPR (ProteOn XPR36), mAb captured on anti-human IgG Fc, PD-1 as analyte, 25 C
Reported Kd values for the following binders.
Expressed in nM, but write only the number.

Worked cases, Kd given:
>  <binder>
PD1B505 (antibody, human IgG1, kappa, V domains shown, Parental mouse antibody cloned as chimeric human IgG1; Bin 1; also called VH PD1H93; VL PD1L30) VH: DVQLQESGPELKKPGETVKISCKASGYTFTDYSMHWVKQAPGKGLKWMGWINIETGEPTYADDFKGRFAFSLETSASTAYLQINNLKNEDTATYFCARDYYGTYFYAMDYWGQGTTLTVSS VL: QIVLTQSPAIMSASLGERVTMTCTASSSVSSSYLHWYQQKPGSSPKLWIYSTSNLASGVPARFSGSGSGTSYSLTISSMEAEDAATYYCHQYHRSPLTFGAGTKLELKR

>  <test-result>
29.1

$$$$
>  <binder>
PD1B506 (antibody, human IgG1, kappa, V domains shown, Parental mouse antibody cloned as chimeric human IgG1; Bin 5; also called VH PD1H90; VL PD1L28) VH: QVQLQQPGAELVKPGASVKLSCKASGYTFTTYWMHWVKQRPGQGLEWIGEINPNNGGINYNEKFKKKATLTVDKSSSTAYMQLSSLTSEDSAVYYCTIDYYDYGGYWGQGTTLTVSS VL: DIVMTQSQKFMSTSVRDRVSVTCKASQNVGTNVAWYQQKPGQSPKALIYSASYRYSGVPDRFTGSGSGTDFTLTITNVQSEDLAEYFCQQYNIYPYTFGSGTKLEMKR

>  <test-result>
52.4

$$$$
>  <binder>
PD1B743 (antibody, human IgG1, kappa, V domains shown, Humanized PD1B505, IgG1; also called VH PD1H384; VL PD1L469) VH: QVQLVQSGSELKKPGASVKVSCKASGYTFTDYSMHWVRQAPGQGLEWMGWINIETGEPTYAQGFTGRFVFSLDTSVSTAYLQICSLKAEDTAVYFCARDYYGTYFYAMDYWGQGTLVTVSS VL: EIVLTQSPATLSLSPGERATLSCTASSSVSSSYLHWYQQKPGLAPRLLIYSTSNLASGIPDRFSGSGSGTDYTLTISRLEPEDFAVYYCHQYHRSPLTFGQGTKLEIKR

>  <test-result>
32.8

$$$$
>  <binder>
PD1B750 (antibody, human IgG1, kappa, V domains shown, Humanized PD1B506, IgG1; also called VH PD1H388; VL PD1L470) VH: QVQLVQSGAEVKKPGASVKVSCKASGYTFTTYWMHWVRQAPGQGLEWMGEINPNNGGINYAQKFQGRVTLTVDKSISTAYMELSRLRSDDTAVYYCTIDYYDYGGYWGQGTLVTVSS VL: DIQMTQSPSSLSASVGDRVTITCKASQNVGTNVAWYQQKPEKAPKSLIYSASYRYSGVPSRFSGSGSGTDFTLTISSLQPEDFATYYCQQYNIYPYTFGQGTKLEIKR

>  <test-result>
23.2

$$$$
>  <binder>
PD1B849 (antibody, human IgG1, kappa, V domains shown, N55E variant of PD1B750, IgG1; also called VH PD1H403; VL PD1L470) VH: QVQLVQSGAEVKKPGASVKVSCKASGYTFTTYWMHWVRQAPGQGLEWMGEINPNEGGINYAQKFQGRVTLTVDKSISTAYMELSRLRSDDTAVYYCTIDYYDYGGYWGQGTLVTVSS VL: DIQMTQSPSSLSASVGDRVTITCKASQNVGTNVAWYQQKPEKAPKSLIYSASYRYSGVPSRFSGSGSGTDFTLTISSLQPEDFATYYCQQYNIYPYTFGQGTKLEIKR

>  <test-result>
47.1

$$$$
>  <binder>
PD1B756 (antibody, human IgG1, kappa, V domains shown, Humanized PD1B512, IgG1; also called VH PD1H389; VL PD1L472) VH: QITLKESGPTLVKPTQTLTLTCTFSGFSLSTSGMGVSWIRQPPGKALEWLAHIYWDDDKRYSPSLKSRLTITKDTSKNQVVLTMTNMDPVDTGTYYCVRKGYYDYGYVMDYWGQGTLVTVSS VL: DIVMTQSPLSLPVTPGEPASISCRSSKSLLHSNGITYLNWYLQKPGQSPQLLIYQMSNLASGVPDRFSGSGSGTDFTLKISRVEAEDVGVYYCAQNLELPLTFGGGTKVEIKR

>  <test-result>
18.1

$$$$

Could you now look at the following binder, please?
Entry PD1B878 (antibody, human IgG1, kappa, V domains shown, C84S variant of PD1B743, IgG1; also called VH PD1H405; VL PD1L469) VH: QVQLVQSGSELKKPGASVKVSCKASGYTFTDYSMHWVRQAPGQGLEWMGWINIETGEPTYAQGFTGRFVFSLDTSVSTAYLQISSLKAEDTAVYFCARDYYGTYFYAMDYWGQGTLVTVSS VL: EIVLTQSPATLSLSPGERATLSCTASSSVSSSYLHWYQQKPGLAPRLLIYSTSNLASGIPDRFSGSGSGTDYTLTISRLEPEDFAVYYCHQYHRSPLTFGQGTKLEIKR , Kd reported as 58.9
